system: NCI-H460 lung; experiment: NCI tumour cell line growth inhibition, 48 h
readout-kind: TGI

- molecule: "Nc1nc(N)c2cc(S(=O)(=O)c3cccc(C(F)(F)F)c3)ccc2n1"
  TGI: "> 100 µM"
- molecule: "CN1CCN(CCCOC(=O)c2c3c(n4ccccc24)C(=O)c2ncccc2C3=O)CC1"
  TGI: "< 0.0118 µM"

The record that follows has no TGI shown yet.
Can you look up the measured TGI of CCOC(=O)c1ccc(-c2onc(C)c2Br)[nH]1 for me?
> 100 µM

---

system: LOX IMVI melanoma; assay: NCI tumour cell line growth inhibition, 48 h
Items are presented alongside their recorded TGI.

- compound: "Clc1cccc(-c2cc(-c3ccc4c(c3)OCCO4)[nH]n2)c1"
  TGI: "39.4 µM"
- compound: "CC(Nc1cccc(Cl)c1)c1ccncc1 (stereo not drawn)"
  TGI: "> 100 µM"
- compound: "CN(C)C(=C1C(Br)=C(Br)C(Br)=C1Br)N(C)C"
  TGI: "55.6 µM"
- compound: "COc1cc(OC)c(-n2[nH]c(=O)n(C)c2=O)c(OC)c1"
  TGI: "> 100 µM"
- compound: "CC(C)NC1CCCCC2c3ccccc3C12O (stereo not drawn)"
  TGI: "> 100 µM"
- compound: "Cc1cc(C)c2c(-c3ccccc3)cc(=O)[nH]c2c1"
  TGI: "> 100 µM"
- compound: "CN(C)N1C(=C(C#N)C#N)C(c2ccccc2)CC1C#N (stereo not drawn)"
  TGI: "> 100 µM"
- compound: "CCOc1cc(/C=C/C(=O)CC(=O)/C=C/c2ccc(OC(=O)CNc3nc4ccc(OC)cc4s3)c(OCC)c2)ccc1OC(=O)CNc1nc2ccc(OC)cc2s1"
  TGI: "12.1 µM"

Identify the measured TGI of O=c1oc2ccccc2cc1P(=O)(O)O for LOX IMVI melanoma.
> 100 µM

Give recorded TGI with LOX IMVI melanoma for the following compound: CC(C)(C)CNCCO
> 100 µM

Give LOX IMVI melanoma TGI for COc1cc(O)c2c(=O)c3cccc(C)c3[nH]c2c1
> 10 µM

Requested read-out TGI, target or system LOX IMVI melanoma, entry CC(C)C(Sc1nc(-c2ccccc2)c(-c2ccccc2)[nH]1)C(=O)N/N=C/c1ccc(Cl)cc1 (stereo not drawn)
28.9 µM

Request - read-out TGI | tested on LOX IMVI melanoma | compound O=C1O/C(=C(\Br)c2ccc([N+](=O)[O-])cc2)c2ccccc21
> 100 µM

# value lookup — system LOX IMVI melanoma, readout TGI, item CC(NC(=O)c1ccc(Cl)c(Cl)c1)c1ccc(-c2ccccc2)cc1 (stereo not drawn)
> 100 µM

Param readout= TGI; system= LOX IMVI melanoma; entry= C/C(=C\CCC1=CC(=O)OC1)CCC1C2C(=O)CC(C)[C@@]3(C)CC[C@]1(C)[C@@]23C (stereo partly drawn) ; returns value.
> 10 µM

What reported TGI corresponds to COC1CCC(O)C(CO)O1 (stereo not drawn) on LOX IMVI melanoma?
65.4 µM

Query the reported TGI for LOX IMVI melanoma; item: O=C(O)CSC1=NCCN1
> 100 µM

Provide the documented TGI with LOX IMVI melanoma as the system for Cc1cc2c(cc1Cl)SC(=Nc1ccc(Cl)cc1)N(S(=O)(=O)c1ccc(Br)s1)S2(=O)=O
24.3 µM
